B1: POU domain, class 2, transcription factor 1, residues 285 to 354; numbered along this chain, P14859 (parent)
chain: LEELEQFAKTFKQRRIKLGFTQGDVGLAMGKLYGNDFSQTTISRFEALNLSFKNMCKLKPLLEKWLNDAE

Variants of: B1
Experiment: abundance fitness (aPCA) (normalised: wild type 0, dead -1); higher = more abundant; growth selection in yeast, the domain comes from the species named
Conditions: Homo sapiens
Criterion: abundance fitness meeting or surpassing -0.05. Met: true. Not met: false.

Worked examples, 8 variants total:
[[record]]
mutant_name = "N49D"
group_label = "true"

[[record]]
mutant_name = "M29F"
group_label = "false"

[[record]]
mutant_name = "G23K"
group_label = "true"

[[record]]
mutant_name = "R44T"
group_label = "false"

[[record]]
mutant_name = "C56V"
group_label = "true"

[[record]]
mutant_name = "E63V"
group_label = "false"

[[record]]
mutant_name = "G34V"
group_label = "false"

[[record]]
mutant_name = "E63S"
group_label = "false"


Does `T21E` have a reported abundance fitness of at least -0.05?
false

Does `T10D` have a reported abundance fitness of at least -0.05?
false

Does `K64C` have a reported abundance fitness of at least -0.05?
false

Does `T21G` have a reported abundance fitness of at least -0.05?
false
